Biological target: L858R/T790M/C797S EGFR (Homo sapiens, UniProt P00533, C797S/L858R/T790M)
Construct: expressed in transfected cells; host or cells: H1975 clone #25 (lentiviral over-expression, endogenous EGFR knocked out by sgRNA)
Sequence (P00533 25-1210 T790M/C797S/L858R): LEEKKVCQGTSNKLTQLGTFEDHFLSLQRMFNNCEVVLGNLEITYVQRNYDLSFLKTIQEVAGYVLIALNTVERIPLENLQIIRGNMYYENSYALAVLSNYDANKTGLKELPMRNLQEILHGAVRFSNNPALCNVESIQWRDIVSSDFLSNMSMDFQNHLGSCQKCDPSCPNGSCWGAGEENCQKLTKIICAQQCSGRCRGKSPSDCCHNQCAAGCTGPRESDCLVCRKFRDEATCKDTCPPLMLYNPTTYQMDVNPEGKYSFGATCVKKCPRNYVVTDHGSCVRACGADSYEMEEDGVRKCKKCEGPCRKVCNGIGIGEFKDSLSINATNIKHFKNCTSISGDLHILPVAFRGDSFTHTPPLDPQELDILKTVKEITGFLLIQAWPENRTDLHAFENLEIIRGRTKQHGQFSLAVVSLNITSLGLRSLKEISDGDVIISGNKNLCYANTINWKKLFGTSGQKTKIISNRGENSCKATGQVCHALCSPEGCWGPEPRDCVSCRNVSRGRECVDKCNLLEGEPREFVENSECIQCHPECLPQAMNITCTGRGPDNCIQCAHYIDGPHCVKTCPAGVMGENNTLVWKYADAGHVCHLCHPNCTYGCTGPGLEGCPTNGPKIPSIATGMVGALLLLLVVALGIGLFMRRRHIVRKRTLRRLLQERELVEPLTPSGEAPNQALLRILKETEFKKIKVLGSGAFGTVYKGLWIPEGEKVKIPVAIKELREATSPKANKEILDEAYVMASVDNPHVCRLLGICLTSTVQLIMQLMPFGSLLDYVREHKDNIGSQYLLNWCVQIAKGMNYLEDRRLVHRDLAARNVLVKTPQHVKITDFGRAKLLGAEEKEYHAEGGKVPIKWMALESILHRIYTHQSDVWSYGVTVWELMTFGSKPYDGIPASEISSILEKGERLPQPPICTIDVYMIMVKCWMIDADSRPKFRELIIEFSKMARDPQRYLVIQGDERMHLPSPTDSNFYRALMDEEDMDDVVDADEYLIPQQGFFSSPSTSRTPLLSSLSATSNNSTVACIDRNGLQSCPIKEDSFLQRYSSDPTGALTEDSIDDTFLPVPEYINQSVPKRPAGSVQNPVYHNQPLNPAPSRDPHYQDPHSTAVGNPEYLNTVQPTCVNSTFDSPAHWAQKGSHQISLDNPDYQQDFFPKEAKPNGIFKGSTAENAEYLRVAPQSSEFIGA
Experiment: EGFR degradation HTRF assay in H1975-clone #25 (LTC) cells
Assay type: cell-based
Settings: NCI-H1975, H1975 # 25-LTC (L858R/T790M/C797S), 16h treatment, maximum percentage of degradation
Dmax overview

MOLECULE | TESTED TARGET | Dmax
Cc1cc2cc(n1)-c1cnn(C)c1OCCC[C@@H](C)CN1/C(=N/C2=O)Nc2ccc(N3CC(C(=O)N4CCN(c5cc(F)c([C@H]6CCC(=O)NC6=O)c(F)c5)CC4)C3)cc21 [Example 354] | L858R/T790M/C797S EGFR (Homo sapiens, UniProt P00533, C797S/L858R/T790M) | 89.3%
Cc1cc2cc(n1)-c1cnn(C)c1OCCC[C@@H](C)CN1/C(=N/C2=O)Nc2ccc(C(=O)N(C)[C@H]3CCN(CCc4cc(F)c([C@H]5CCC(=O)NC5=O)c(F)c4)CC3(F)F)cc21 [Example 251] | L858R/T790M/C797S EGFR (Homo sapiens, UniProt P00533, C797S/L858R/T790M) | 85.5%
Cc1cc2cc(n1)-c1cnn(C)c1OCCC[C@@H](C)CN1/C(=N/C2=O)Nc2ccc(OC3CCN(C(=O)C4CN(c5cc(F)c([C@H]6CCC(=O)NC6=O)c(F)c5)C4)CC3)cc21 [Example 156] | L858R/T790M/C797S EGFR (Homo sapiens, UniProt P00533, C797S/L858R/T790M) | 86.9%

input: Give L858R/T790M/C797S EGFR (Homo sapiens, UniProt P00533, C797S/L858R/T790M) Dmax for Cc1cc2cc(n1)-c1cnn(C)c1OCCC[C@@H](C)CN1/C(=N/C2=O)Nc2ccc(N3CCN(CC4CN(c5cc(F)c([C@H]6CCC(=O)NC6=O)c(F)c5)C4)[C@@H](C#N)C3)cc21 [Example 423]
output: 78.8%

input: Try this molecule too: Cc1cc2cc(n1)-c1cnn(C)c1OCC[C@H]1C[C@@H]1CN1/C(=N/C2=O)Nc2ccc(N3CCN([C@H]4C[C@H](Nc5cc(F)c([C@H]6CCC(=O)NC6=O)c(F)c5)C4)CC3)cc21 (single isomer, unassigned) [Example 443]
output: 86.6%

input: Same again, this time with Cc1cc2cc(n1)-c1cnn(C)c1OCCC[C@@H](C)CN1/C(=N/C2=O)Nc2ccc(CN3CCC(N4CCN(C(=O)[C@@H]5CCN(c6cc(F)c([C@H]7CCC(=O)NC7=O)c(F)c6)C5)CC4)CC3)cc21 [Example 6]
output: 89.9%

input: Next molecule up: Cc1cc2cc(n1)-c1cnn(C)c1OCCC[C@@H](C)CN1/C(=N/C2=O)Nc2cc(F)c(C(=O)N(C)C3CCN(CCc4cc(F)c([C@H]5CCC(=O)NC5=O)c(F)c4)CC3)cc21 [Example 232]
output: 92%

====

Molecular target: L858R/T790M/C797S EGFR (Homo sapiens, UniProt P00533, C797S/L858R/T790M)
Construct: expressed in transfected cells; host or cells: H1975 clone #25 (lentiviral over-expression, endogenous EGFR knocked out by sgRNA)
Experiment: EGFR degradation HTRF assay in H1975-clone #25 (LTC) cells
Format: cell-based
Conditions: NCI-H1975, H1975 # 25-LTC (L858R/T790M/C797S), 16h treatment, maximum percentage of degradation
Source text: H1975-clone #28(Del19/T790M/C797S, or abbr: DTC), H1975-clone #23(Del19/C797S, or abbr: DC), H1975-clone #25(L858R/T790M/C797S, or abbr: LTC) and H1975-clone #8 (L858R/C797S, or abbr: LC). EGFR-Del19:T790M/C797S, EGFR-Del19/C797S, EGFR-L858R/T790M/C797S and EGFR-L858R/C797S were stably expressed in H1975 cell lines by lentivirus-mediated over-expression, respectively. […]
Cut-off 90% on Dmax: below means Condition met, at or above means Condition not met.

SMILES CODE | TESTED TARGET | CAT
Cc1cc2cc(n1)-c1cnn(C)c1OCCC[C@@H](C)CN1/C(=N/C2=O)Nc2ccc(N3CCC(N4CC(Nc5cc(F)c([C@H]6CCC(=O)NC6=O)c(F)c5)C4)CC3)cc21 | L858R/T790M/C797S EGFR (Homo sapiens, UniProt P00533, C797S/L858R/T790M) | Condition met

Now take the following compound into account.
input: Problem: For the compound `Cc1cc2cc(n1)-c1cnn(C)c1OCCC[C@@H](C)CN1/C(=N/C2=O)Nc2ccc(C(=O)N(C)C3CCN(C4CCN(c5cc(F)c([C@H]6CCC(=O)NC6=O)c(F)c5)CC4)CC3)cc21` , is Dmax under 90%?
output: Condition not met
